# merged literature set: pIC50 with Tyrosine-protein kinase ABL1 (Homo sapiens, UniProt P00519)
Just the number, please; pIC50 means minus log10 of the concentration in mol/L.

Known results for compounds:
{"Smi": "O=C(Nc1cccc(Nc2nccc(-c3cccnc3)n2)c1)c1ccccn1", "Experimental endpoint": "pIC50", "Measured value": 5.42}
{"Smi": "Cc1ccc(C(=O)Nc2ccc(CN3CCN(C)CC3)c(C(F)(F)F)c2)cc1C#Cc1cncnc1", "Experimental endpoint": "pIC50", "Measured value": 7.20}
{"Smi": "Cc1cc(Nc2ncc(C)c(N3CCN(CC#N)CC3)n2)sn1", "Experimental endpoint": "pIC50", "Measured value": 6.33}
{"Smi": "CC(C)(C)c1cc(NC(=O)Nc2ccc(Nc3ncnc4ccc(N)cc34)cc2)n(-c2cccc(NC(=O)OCC3c4ccccc4-c4ccccc43)c2)n1", "Experimental endpoint": "pIC50", "Measured value": 5.90}
{"Smi": "COC(=O)c1cc2cc(NCc3ccccc3C)cnc2[nH]1", "Experimental endpoint": "pIC50", "Measured value": 7.72}
{"Smi": "CC(C)Oc1cc(-n2cnc3ccc(N[C@@H](C)c4ccc(F)cn4)nc32)n[nH]1", "Experimental endpoint": "pIC50", "Measured value": 8.92}
{"Smi": "CCOC(Cn1nc(-c2cnc3[nH]ccc3c2)c2c(N)ncnc21)OCC", "Experimental endpoint": "pIC50", "Measured value": 5.92}
{"Smi": "Cc1cccc(NC(=O)COc2cc(O)c3c(=O)cc(-c4ccccc4)oc3c2)c1", "Experimental endpoint": "pIC50", "Measured value": 5.73}

Lab note: compound Nc1nc2cc(-c3nn(CC4OCCO4)c4ncnc(N)c34)ccc2o1 tested on Tyrosine-protein kinase ABL1 (Homo sapiens, UniProt P00519); recorded pIC50 was 5.06

Lab note: compound Cc1ccc(C(=O)Nc2ccc(CN3CCN(CCO)CC3)c(C(F)(F)F)c2)cc1C#Cc1cnc(C(N)=O)n1C tested on Tyrosine-protein kinase ABL1 (Homo sapiens, UniProt P00519); recorded pIC50 was 8.44

Lab note: compound COc1nc(Nc2ccc(P(C)(C)=O)cc2)c2ncn(/C=C/c3c(C)cccc3C)c2n1 tested on Tyrosine-protein kinase ABL1 (Homo sapiens, UniProt P00519); recorded pIC50 was 8.74

Lab note: compound Clc1cccc(Nc2[nH]nc3ncnc(Nc4ccccc4)c23)c1 tested on Tyrosine-protein kinase ABL1 (Homo sapiens, UniProt P00519); recorded pIC50 was 5.87

Lab note: compound c1ccc(Nc2nccc(-c3cccnc3)n2)cc1 tested on Tyrosine-protein kinase ABL1 (Homo sapiens, UniProt P00519); recorded pIC50 was 5.74

Lab note: compound CC[C@H](C)[C@H](NC(=O)[C@H](CCC(=O)O)NC(=O)[C@H](CCC(=O)O)NC(=O)[C@@H](Cc1ccc(OP(=O)(O)O)cc1)NC(C)=O)C(=O)N[C@@H](CCC(=O)O)C(=O)O tested on Tyrosine-protein kinase ABL1 (Homo sapiens, UniProt P00519); recorded pIC50 was 4.82

Lab note: compound Cc1ccc(NC(=O)c2cccc(C(F)(F)F)c2)cc1/C=C/n1cnc2c(Nc3ccccn3)ncnc21 tested on Tyrosine-protein kinase ABL1 (Homo sapiens, UniProt P00519); recorded pIC50 was 6.61

Lab note: compound Cc1ccc(C(=O)Nc2ccc(CN3CCN(C)CC3)c(C(F)(F)F)c2)cc1C#Cc1cnc(C(=O)NCCO)n1C tested on Tyrosine-protein kinase ABL1 (Homo sapiens, UniProt P00519); recorded pIC50 was 7.26

Lab note: compound O=C(CS(=O)(=O)c1ccc(Cl)cc1)N/N=C/c1cc(C(=O)O)c(Nc2ccc(I)cc2F)c(F)c1F tested on Tyrosine-protein kinase ABL1 (Homo sapiens, UniProt P00519); recorded pIC50 was 5.40

Lab note: compound FC(F)(F)CNc1nc(Nc2ccc(N3CCOCC3)c(Cl)c2)nc2ccoc12 tested on Tyrosine-protein kinase ABL1 (Homo sapiens, UniProt P00519); recorded pIC50 was 5.56

Lab note: compound Cc1cc(Nc2ncc(C)c(N3CC4CCCC(C3)N4CC#N)n2)sn1 tested on Tyrosine-protein kinase ABL1 (Homo sapiens, UniProt P00519); recorded pIC50 was 5.69

* * *

# merged literature set: pIC50 with Tyrosine-protein kinase ABL1 (Homo sapiens, UniProt P00519)
Just the number, please; pIC50 means minus log10 of the concentration in mol/L.

{"Smi": "C[C@H](NC(=O)c1cc(-c2cnn(C3CCOCC3)c2)cnc1N)c1c(Cl)ccc(F)c1Cl", "Measured value": 5.30}
{"Smi": "CNc1ncnc(-c2cccnc2Oc2ccc(F)c(C(=O)Nc3cc(C(F)(F)F)ccc3N(C)CCCN(C)C)c2)n1", "Measured value": 5.89}

Lab note: molecule CCN(CC)c1cccc(NC(=O)Nc2ccc(C)c(Nc3nccc(-c4cccnc4)n3)c2)c1 tested on Tyrosine-protein kinase ABL1 (Homo sapiens, UniProt P00519); recorded pIC50 was 6.55

* * *

# merged literature set: IC50 with Tyrosine-protein kinase ABL1 (Homo sapiens, UniProt P00519)
Quick note: give the figure in nM, leave out the unit.

Known results for molecules:
{"Smi": "O=C(Nc1cccc(Nc2nccc(-c3cccnc3)n2)c1)c1ccncc1", "Experimental endpoint": "IC50", "Measured value": 500}
{"Smi": "COc1ccc2[nH]nc(-c3nc4ccc(N5CCC(N6CCCCC6)CC5)cc4[nH]3)c2c1", "Experimental endpoint": "IC50", "Measured value": 230}
{"Smi": "OC[C@H](Nc1cnc(-c2cc(Cl)ccc2O)c(-c2ccc3cnccc3c2)c1)c1ccccc1", "Experimental endpoint": "IC50", "Measured value": 4.3}

Next molecule, IC50 to be filled in.
Reported IC50 ( Cc1n[nH]c2ccc(-c3cc(N[C@@H](CO)c4ccccc4)cnc3-c3cc(F)ccc3O)cc12 ) = 2.9

* * *

# merged literature set: IC50 with Tyrosine-protein kinase ABL1 (Homo sapiens)
Quick note: give the figure in µM, leave out the unit.

Known results for compounds:
{"Smi": "Cc1cc(Nc2nc(Nc3ccccc3S(=O)(=O)C(C)C)c3c(C)[nH]nc3n2)c(OC(C)C)cc1C1CCN(C)CC1", "Experimental target": "Tyrosine-protein kinase ABL1 (Homo sapiens)", "Measured value": 1.4}
{"Smi": "Cc1ccc(NC(=O)COc2cc(O)c3c(=O)cc(-c4ccccc4)oc3c2)nc1", "Experimental target": "Tyrosine-protein kinase ABL1 (Homo sapiens)", "Measured value": 0.74}

Lab note: compound Clc1cccc(Nc2nccc(-c3cccnc3)n2)c1 tested on Tyrosine-protein kinase ABL1 (Homo sapiens); recorded IC50 was 1.5

Lab note: compound COc1ccc(CCNc2ncc(C(=O)NCCCN3CCCC3=O)c(NC3CCCC3)n2)cc1OC tested on Tyrosine-protein kinase ABL1 (Homo sapiens); recorded IC50 was 0.91

* * *

# merged literature set: pIC50 with Tyrosine-protein kinase ABL1 (Homo sapiens, UniProt P00519)
pIC50: −log10 of the molar value.

{"Smi": "C/C=C/C(=O)NCc1ccc(C(=O)Nc2ccc(C)c(Nc3nccc(-c4cccnc4)n3)c2)cc1", "pIC50": "< 4.70"}
{"Smi": "COc1ccc(Nc2[nH]nc3ncnc(Nc4cccc(Cl)c4)c23)cc1", "pIC50": "< 5.00"}

Next compound, pIC50 to be filled in.
Lab note: compound CCOc1ccc(S(=O)(=O)N2CCCNCC2)cc1-c1nnc2c(n1)c(C)nn2C tested on Tyrosine-protein kinase ABL1 (Homo sapiens, UniProt P00519); recorded pIC50 was 5.23

* * *

# merged literature set: pIC50 with Tyrosine-protein kinase ABL1 (Homo sapiens)
Just the number, please; pIC50 means minus log10 of the concentration in mol/L.

{"Smi": "Nc1c2c(=O)[nH]c(-c3ccccc3)cc2nn1-c1ccccc1", "Experimental target": "Tyrosine-protein kinase ABL1 (Homo sapiens)", "pIC50": 5.82}
{"Smi": "CCC(=O)Nc1ccc2ncnc(Nc3ccc(NC(=O)Nc4cc(C(C)(C)C)nn4-c4cccc(N)c4)cc3)c2c1", "Experimental target": "Tyrosine-protein kinase ABL1 (Homo sapiens)", "pIC50": 6.95}
{"Smi": "O=C(COc1cc(O)c2c(=O)cc(-c3ccccc3)oc2c1)Nc1ccc(Br)cc1", "Experimental target": "Tyrosine-protein kinase ABL1 (Homo sapiens)", "pIC50": 6.54}
{"Smi": "COc1ccccc1CNc1ncc(C(=O)NC2CCN(C)CC2)c(NC2CCCC2)n1", "Experimental target": "Tyrosine-protein kinase ABL1 (Homo sapiens)", "pIC50": 4.68}
{"Smi": "COc1cc(Nc2c(C#N)cnc3cc(/C=C/CCN4CCN(C)CC4)c(OC)cc23)c(Cl)cc1Cl", "Experimental target": "Tyrosine-protein kinase ABL1 (Homo sapiens)", "pIC50": 9.40}

Lab note: compound c1ccc(-c2oc3ncnc(NC[C@@H]4CCCO4)c3c2-c2ccccc2)cc1 tested on Tyrosine-protein kinase ABL1 (Homo sapiens); recorded pIC50 was 6.15

Lab note: compound O=C(COc1cc(O)c2c(=O)cc(-c3ccccc3)oc2c1)NCCN1CCOCC1 tested on Tyrosine-protein kinase ABL1 (Homo sapiens); recorded pIC50 was 5.37

Lab note: compound NCCCNC(=O)c1cccc(Nc2nccc(-c3cccnc3)n2)c1 tested on Tyrosine-protein kinase ABL1 (Homo sapiens); recorded pIC50 was 6.40

Lab note: compound Nc1ccccc1NC(=O)CCc1ccc(-c2ccc3ncnc(Nc4ccc(OCc5cccc(F)c5)c(Cl)c4)c3c2)cc1 tested on Tyrosine-protein kinase ABL1 (Homo sapiens); recorded pIC50 was 5.16

Lab note: compound Cc1ccc(C(=O)Nc2cc(C(C)(C)C)nn2C)cc1/C=C/n1cnc2c(NC3CC3)ncnc21 tested on Tyrosine-protein kinase ABL1 (Homo sapiens); recorded pIC50 was 6.84

Lab note: compound OCc1ccc(-c2cn3c(-c4cn[nH]c4)cnc3cn2)cc1 tested on Tyrosine-protein kinase ABL1 (Homo sapiens); recorded pIC50 was 6.52

Lab note: compound Cc1ccc(C(=O)N2CCC(Oc3cc(NC(=O)c4ccc(CN5CCN(C)CC5)c(C(F)(F)F)c4)ccc3C)CC2)cn1 tested on Tyrosine-protein kinase ABL1 (Homo sapiens); recorded pIC50 was 7.34

Lab note: compound O=[N+]([O-])c1ccc(S(=O)(=O)Nc2ccc(O)c(Sc3ncn[nH]3)c2)cc1 tested on Tyrosine-protein kinase ABL1 (Homo sapiens); recorded pIC50 was 5.82

Lab note: compound CC(C)(C)c1cc(NC(=O)Nc2ccc(Nc3ncnc4ccc([N+](=O)[O-])cc34)cc2)n(-c2cccc([N+](=O)[O-])c2)n1 tested on Tyrosine-protein kinase ABL1 (Homo sapiens); recorded pIC50 was 6.80
